Entry source: the supplement of paper PMC4466140

- target: CaCyk3
- assay_method_text: SPOT peptide array binding signal intensity (averaged, normalized) (arbitrary units (background-subtracted, floor 0; scale differs between SH3 domains)); higher = stronger binding of the SH3 domain to the peptide
assay_metric: SPOT peptide array binding signal intensity

Some binders with known SPOT peptide array binding signal intensity results, for comparison:
[[record]]
binder = "NIKVLLNPKLGKPVK"
result = "≤ 0"

[[record]]
binder = "PPIPNAPLSPAPAVP"
result = "≤ 0"

[[record]]
binder = "DLFKPLPEPPTELGR"
result = "≤ 0"

[[record]]
binder = "AAAPKHAPPPVPNET"
result = "≤ 0"


We now examine a further binder.
Prompt line: What does the record list as SPOT peptide array binding signal intensity for `NNFYRPLLRSVLVLL` ?
Response line: ≤ 0
